- Tested System: UniProt Q13873
- Sequence (Q13873 whole entry): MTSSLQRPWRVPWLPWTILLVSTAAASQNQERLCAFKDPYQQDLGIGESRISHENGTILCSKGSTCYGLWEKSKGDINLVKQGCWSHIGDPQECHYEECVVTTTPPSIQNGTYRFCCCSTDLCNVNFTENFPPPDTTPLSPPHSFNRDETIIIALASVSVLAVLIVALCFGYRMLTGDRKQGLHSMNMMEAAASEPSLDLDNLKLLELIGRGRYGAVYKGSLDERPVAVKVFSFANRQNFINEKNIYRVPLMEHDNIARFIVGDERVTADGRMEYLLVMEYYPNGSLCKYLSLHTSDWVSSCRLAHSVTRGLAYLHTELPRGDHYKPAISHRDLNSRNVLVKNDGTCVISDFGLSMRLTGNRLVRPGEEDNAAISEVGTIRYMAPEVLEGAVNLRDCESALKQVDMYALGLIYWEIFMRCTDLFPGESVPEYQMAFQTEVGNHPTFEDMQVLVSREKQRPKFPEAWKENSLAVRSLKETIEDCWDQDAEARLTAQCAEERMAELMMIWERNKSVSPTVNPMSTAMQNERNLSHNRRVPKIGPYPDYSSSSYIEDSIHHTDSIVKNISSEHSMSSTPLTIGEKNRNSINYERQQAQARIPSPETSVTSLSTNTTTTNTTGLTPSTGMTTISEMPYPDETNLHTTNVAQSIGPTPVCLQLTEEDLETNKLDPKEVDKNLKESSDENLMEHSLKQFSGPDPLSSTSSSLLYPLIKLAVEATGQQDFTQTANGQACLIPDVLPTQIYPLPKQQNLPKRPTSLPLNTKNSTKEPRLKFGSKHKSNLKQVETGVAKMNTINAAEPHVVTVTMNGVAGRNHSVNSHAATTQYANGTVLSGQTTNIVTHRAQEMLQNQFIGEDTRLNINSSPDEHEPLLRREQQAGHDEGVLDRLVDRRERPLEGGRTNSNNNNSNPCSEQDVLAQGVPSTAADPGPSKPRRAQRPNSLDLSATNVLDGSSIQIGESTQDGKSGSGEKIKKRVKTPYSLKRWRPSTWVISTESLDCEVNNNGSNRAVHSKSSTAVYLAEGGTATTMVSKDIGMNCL
- Experiment Notes: Binding affinity to recombinant BMPR2 (unknown origin) assessed as change in melting temperature at 10 uM by DSF assay
ΔTm reference
Reply with just the number (in °C).

In: Give a short answer stating reported ΔTm for O=C1NCCc2ccc(cc2)Nc2nccc(n2)Nc2cc1[nH]n2 .
Out: 5.8

In: Give a short answer stating reported ΔTm for O=C1NCCCCCNc2nccc(n2)Nc2cc1[nH]n2 .
Out: 4.6

In: Give a short answer stating reported ΔTm for O=C1NCCc2cccc(c2)Nc2nccc(n2)Nc2cc1[nH]n2 .
Out: 5

In: Give a short answer stating reported ΔTm for N#CCc1ccc(Nc2nccc(Nc3cc(C4CC4)[nH]n3)n2)cc1 .
Out: 9.2

----------
- Tested System: TGF-beta receptor type-1 (Homo sapiens, UniProt P36897)
- Sequence (P36897 whole entry): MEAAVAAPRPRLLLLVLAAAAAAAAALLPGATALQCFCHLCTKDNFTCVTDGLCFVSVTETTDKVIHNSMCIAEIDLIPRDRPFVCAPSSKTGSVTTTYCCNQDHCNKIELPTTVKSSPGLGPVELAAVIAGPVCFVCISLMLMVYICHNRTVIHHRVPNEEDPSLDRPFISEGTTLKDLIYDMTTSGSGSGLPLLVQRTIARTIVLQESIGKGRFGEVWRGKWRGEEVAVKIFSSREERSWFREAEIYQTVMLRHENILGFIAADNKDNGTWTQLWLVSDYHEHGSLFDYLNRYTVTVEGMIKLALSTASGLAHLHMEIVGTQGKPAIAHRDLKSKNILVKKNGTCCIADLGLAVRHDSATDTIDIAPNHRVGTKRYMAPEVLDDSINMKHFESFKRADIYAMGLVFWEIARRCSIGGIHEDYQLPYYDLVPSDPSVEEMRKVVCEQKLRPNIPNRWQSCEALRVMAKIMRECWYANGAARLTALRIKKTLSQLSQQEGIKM
Quantity Name: Kd (µM)
Reply with just the number (in µM).

In: Report measured Kd on TGF-beta receptor type-1 (Homo sapiens, UniProt P36897); entry: N#CCc1ccc(Nc2nccc(Nc3cc(C4CC4)[nH]n3)n2)cc1
Out: 0.324

----------
- Tested System: Glycogen synthase kinase-3 alpha (Homo sapiens)
- Sequence (P49840 whole entry, the tested form may be a part): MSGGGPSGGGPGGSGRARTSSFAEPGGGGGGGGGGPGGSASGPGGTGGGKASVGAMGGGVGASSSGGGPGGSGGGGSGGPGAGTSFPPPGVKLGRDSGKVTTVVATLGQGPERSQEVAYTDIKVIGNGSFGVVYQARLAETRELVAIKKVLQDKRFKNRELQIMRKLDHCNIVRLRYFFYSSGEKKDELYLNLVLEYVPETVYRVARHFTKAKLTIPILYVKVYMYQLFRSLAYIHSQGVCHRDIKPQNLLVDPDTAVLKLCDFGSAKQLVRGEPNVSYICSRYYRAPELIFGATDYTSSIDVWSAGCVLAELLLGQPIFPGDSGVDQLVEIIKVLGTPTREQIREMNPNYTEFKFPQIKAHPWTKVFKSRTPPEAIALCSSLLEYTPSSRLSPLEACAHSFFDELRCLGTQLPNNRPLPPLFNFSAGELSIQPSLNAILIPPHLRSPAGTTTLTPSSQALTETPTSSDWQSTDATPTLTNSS
- Experiment Notes: Inhibition of N-terminal NanoLuc-fused full length GSK3A (unknown origin) transfected in HEK293T cells incubated for 2 hrs in presence of tracer K8 by NanoBRET assay
- Type: cell-based
pIC50 reference
// scale note: pIC50 = -log10(conc_M); give the bare number

> print(dat)
                           smiles.structure  quantity.name  measurement
1  O=C1NCCc2ccc(cc2)Nc2nccc(n2)Nc2cc1[nH]n2          pIC50         4.96

Would you kindly look at the next entry?
In: Give a short answer stating reported pIC50 for N#CCc1ccc(Nc2nccc(Nc3cc(C4CC4)[nH]n3)n2)cc1 .
Out: 8.40

----------
ΔTm reference
- Tested System: UniProtKB P49841
- Sequence (P49841 whole entry, looked up): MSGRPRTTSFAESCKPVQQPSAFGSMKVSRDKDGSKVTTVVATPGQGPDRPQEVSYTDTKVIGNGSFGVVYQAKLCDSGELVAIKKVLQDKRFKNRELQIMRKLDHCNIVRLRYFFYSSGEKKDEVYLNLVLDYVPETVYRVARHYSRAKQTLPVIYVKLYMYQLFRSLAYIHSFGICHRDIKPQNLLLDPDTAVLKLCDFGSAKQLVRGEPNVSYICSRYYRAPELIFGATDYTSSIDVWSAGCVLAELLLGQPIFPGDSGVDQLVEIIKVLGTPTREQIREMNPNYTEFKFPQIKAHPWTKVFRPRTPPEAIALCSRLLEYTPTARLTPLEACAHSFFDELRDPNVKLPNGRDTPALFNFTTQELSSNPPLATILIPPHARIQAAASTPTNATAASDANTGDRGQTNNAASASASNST
- Experiment Notes: Binding affinity to recombinant GSK3B (unknown origin) assessed as change in melting temperature at 10 uM by DSF assay
Reply with just the number (in °C).

> print(dat)
                           smiles.structure  measurement
1  O=C1NCCc2cccc(c2)Nc2nccc(n2)Nc2cc1[nH]n2          7.2
2         O=C1NCCCCCNc2nccc(n2)Nc2cc1[nH]n2          4.9
3  O=C1NCCc2ccc(cc2)Nc2nccc(n2)Nc2cc1[nH]n2          8.4

Would you kindly look at the next entry?
In: Give a short answer stating reported ΔTm for N#CCc1ccc(Nc2nccc(Nc3cc(C4CC4)[nH]n3)n2)cc1 .
Out: 14
